- Target Or Test System: Orexin/Hypocretin receptor type 1 (Homo sapiens)
- Sequence (whole entry): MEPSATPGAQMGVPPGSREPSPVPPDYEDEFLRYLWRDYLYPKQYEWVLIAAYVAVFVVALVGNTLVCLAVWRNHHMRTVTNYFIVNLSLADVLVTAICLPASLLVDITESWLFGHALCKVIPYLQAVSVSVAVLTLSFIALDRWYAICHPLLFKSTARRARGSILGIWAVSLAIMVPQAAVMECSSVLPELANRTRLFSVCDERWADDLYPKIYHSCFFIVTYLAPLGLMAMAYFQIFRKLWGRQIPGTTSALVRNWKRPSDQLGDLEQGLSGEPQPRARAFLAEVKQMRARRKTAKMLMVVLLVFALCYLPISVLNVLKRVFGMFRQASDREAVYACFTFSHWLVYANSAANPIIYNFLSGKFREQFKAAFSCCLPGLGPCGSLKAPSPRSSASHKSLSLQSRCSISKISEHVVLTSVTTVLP
- Protocol Description: Agonist activity at OX1R (unknown origin) expressed in CHO cells at 10 uM by cell based calcium assay relative to orexin A
Recorded Metric: Emax (%)
Express your answer in %, writing the number without its unit.

Study these solved cases before continuing.
- Compound: "CC(C)(C)NC(=O)NC[C@@]1(C)O[C@@H]2CO[C@H]3N2[C@@H]1O[C@]3(C)CNC(=O)NC(C)(C)C"
  Emax [%]: 2.81
- Compound: "CC(C)(C)OC(=O)NC[C@@]1(C)O[C@H]2N3[C@@H](CO[C@@H]31)O[C@@]2(C)CNC(=O)OC(C)(C)C"
  Emax [%]: 4.94
- Compound: "CCCCCCCCS(=O)(=O)NC[C@]1(C)O[C@@H]2CO[C@H]3N2[C@@H]1O[C@@]3(C)CNS(=O)(=O)CCCCCCCC (stereo in doubt; 28a)"
  Emax [%]: 11.8
- Compound: "CC(C)(C)OC(=O)NC[C@@]1(C)O[C@@H]2CO[C@H]3N2[C@@H]1O[C@@]3(C)CNC(=O)OC(C)(C)C"
  Emax [%]: 2.21
- Compound: "CCCCCCCCS(=O)(=O)NC[C@@]1(C)O[C@@H]2CO[C@H]3N2[C@@H]1O[C@]3(C)CNS(=O)(=O)CCCCCCCC (racemic)"
  Emax [%]: 23.6
- Compound: "CN(C[C@@]1(C)O[C@@H]2CO[C@H]3N2[C@@H]1O[C@]3(C)CN(C)C(=O)OC(C)(C)C)C(=O)OC(C)(C)C"
  Emax [%]: 4.47

Looking up `CCCCCCCCS(=O)(=O)NC[C@@]1(C)O[C@H]2CO[C@@H]3N2[C@H]1O[C@]3(C)CNS(=O)(=O)CCCCCCCC` , I found its Emax recorded as 5.29

Looking up CCCCCCCCS(=O)(=O)NC[C@]1(C)O[C@@H]2CO[C@H]3N2[C@@H]1O[C@@]3(C)CNS(=O)(=O)CCCCCCCC (stereo in doubt; (+)-28d) , I found its Emax recorded as 5.66

Looking up `CC(C)(C)OC(=O)NC[C@@]1(C)O[C@H]2CO[C@@H]3N2[C@H]1O[C@]3(C)CNC(=O)OC(C)(C)C` , I found its Emax recorded as 4.31

# credit: ChEMBL document CHEMBL5241129
